Hello, the source for this data is patent US9328099B2, in case you need it.

target: JAK2 (Homo sapiens (Human)); assay: Jak Biochemical HTRF Assay, JAK2; conditions: HTRF biochemical assay, GST-tagged catalytic domain; top concentration tested […]
measured_metric: IC50 (nM)

Example cases with answers are listed next.
Cc1cc(CN2CCC(CC#N)(n3cc(C(N)=O)c(Nc4ccnc(F)c4)n3)CC2)no1 | 157
N#CCC1(n2cc(C(N)=O)c(Nc3ccnc(F)c3)n2)CCC(Nc2ccccc2Cl)CC1 (stereo not shown) [Example 40-25] | 940
COC1CN(C2CCC(CC#N)(n3cc(C(N)=O)c(Nc4ccc(F)cc4)n3)CC2)C1 (stereo not shown) | 35
N#CCC1(n2cc(C(N)=O)c(Nc3ccc(S(=O)(=O)C(F)F)cc3)n2)CCC(NCC(F)F)CC1 (stereo not shown) [Example 40-84] | 3
Cc1cc(C)c(NC(=O)N2CC(CC#N)(n3cc(C(N)=O)c(Nc4ccccc4)n3)C2)c(C)c1 | 1440

A. CC(OC(=O)N1CCC(CC#N)(n2cc(C(N)=O)c(Nc3ccc(F)cc3)n2)CC1)C(F)(F)F (stereo not shown)
B. Cc1ccc(C)c(NC(=O)N2CC(CC#N)(n3cc(C(N)=O)c(Nc4ccccc4)n3)C2)c1
### Prompt Could you kindly indicate whether A or B has the higher IC50 value? Respond using the label that marks the chosen record.
### Response B

* * *

target: JAK2 (Homo sapiens (Human), UniProt O60674); test: Jak Biochemical HTRF Assay, JAK2; details: HTRF biochemical assay, GST-tagged catalytic domain; top concentration tested […]
Sequence (O60674 849-1124): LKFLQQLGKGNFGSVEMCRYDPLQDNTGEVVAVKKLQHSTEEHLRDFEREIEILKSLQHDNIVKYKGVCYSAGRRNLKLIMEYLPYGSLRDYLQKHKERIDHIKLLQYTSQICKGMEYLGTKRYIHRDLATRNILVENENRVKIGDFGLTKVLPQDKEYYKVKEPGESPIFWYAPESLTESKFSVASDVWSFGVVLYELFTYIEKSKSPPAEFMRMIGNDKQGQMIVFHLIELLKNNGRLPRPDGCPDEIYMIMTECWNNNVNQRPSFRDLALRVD
pIC50: −log10 of the molar value.
measured_metric: pIC50

Example cases with answers are listed next.
N#CCC1(n2cc(C(N)=O)c(Nc3ccc(F)cc3)n2)CCN(c2cccc(F)n2)CC1 | 8.40
N#CCC1(n2cc(C(N)=O)c(Nc3ccc(F)cc3)n2)CCN(C(=O)OCC(F)F)CC1 | 8.05
CC(CO)OC(=O)N1CCC(CC#N)(n2cc(C(N)=O)c(Nc3ccc(F)cc3)n2)CC1 (centres unmarked) | 8.10

1. N#CCC1(n2cc(C(N)=O)c(Nc3ccnc(F)c3)n2)CCC(NCc2cccc(C#N)c2)CC1 (centres unmarked)
2. Cc1cc(N2CCC(CC#N)(n3cc(C(N)=O)c(Nc4ccc(F)cc4)n3)CC2)cnc1C
3. CC(C)(C)OC(=O)N1CCC(CC#N)(n2cc(C(N)=O)c(Nc3cccc(Cn4ccnc4)c3)n2)CC1
4. N#CCC1(n2cc(C(N)=O)c(Nc3ccnc(F)c3)n2)CCN(Cc2ccc(F)cc2)CC1
### Prompt Falling order of pIC50, please. A ranking is expressed here by listing the labels in the requested order.
### Response 4, 3, 2, 1
(4: 8.40, 3: 7.96, 2: 7.31, 1: 5.85)

* * *

molecular target: UniProt:P23458; experiment: Jak Biochemical HTRF Assay, JAK1; conditions: HTRF biochemical assay, GST-tagged catalytic domain; top concentration tested […]; read-out: JAK1 IC50
Sequence (P23458 875-1153): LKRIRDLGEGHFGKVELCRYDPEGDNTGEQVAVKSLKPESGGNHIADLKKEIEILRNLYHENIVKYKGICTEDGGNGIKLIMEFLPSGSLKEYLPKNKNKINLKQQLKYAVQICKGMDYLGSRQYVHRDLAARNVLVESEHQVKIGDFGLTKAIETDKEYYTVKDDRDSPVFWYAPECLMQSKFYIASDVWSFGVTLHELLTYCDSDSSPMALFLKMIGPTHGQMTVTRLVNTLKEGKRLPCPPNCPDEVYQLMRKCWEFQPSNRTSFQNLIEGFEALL
measured_metric: IC50 (nM)

N#CCC1(n2cc(C(N)=O)c(Nc3ccc(F)cc3)n2)CCN(Cc2cc(F)ccn2)CC1 | 0.6
N#CCC1(n2cc(C(N)=O)c(Nc3ccnc(F)c3)n2)CCC(NCc2cccc(Cl)c2)CC1 (centres unmarked) [Example 41-23] | 46
N#CCC1(n2cc(C(N)=O)c(Nc3ccnc(F)c3)n2)CCN(C(=O)C2(C(F)(F)F)CC2)CC1 | 2
CC(C)COC(=O)N1CCC(CC#N)(n2cc(C(N)=O)c(Nc3ccccc3)n2)CC1 | 3
Cc1cc(N2CCC(CC#N)(n3cc(C(N)=O)c(Nc4ccc(F)cc4)n3)CC2)cnc1F | 1
N#CCC1(n2cc(C(N)=O)c(Nc3ccccc3)n2)CCN(C(=O)OC2CCCCC2)CC1 | 8

1. N#CCC1(n2cc(C(N)=O)c(Nc3ccccc3)n2)CCN(C(=O)c2ccccc2-c2ccccc2)CC1
2. CC(C)(C)COC(=O)N1CCC(CC#N)(n2cc(C(N)=O)c(Nc3ccccc3)n2)CC1
### Prompt Could you kindly indicate whether 1 or 2 has the higher IC50 value? Respond using the label that marks the chosen record.
### Response 1
